Source: PubChem BioAssay AID624483

For each record, write down the corresponding fluorescence intensity.
- experiment_summary: compound fluorescence in toxin protease inhibitor counterscreen, primary screen, artefact control for toxin protease inhibitor project, biochemical, multiplex microsphere, HTS (AID 624483)
- conditions_used: compound autofluorescence counterscreen, microsphere flow cytometry; hits give high values
The campaign covered roughly 360,000 compounds. About 11,000 (3.1%) were called active. Not shown: some 2% with an inconclusive outcome. This excerpt belongs to a sample that is enriched for actives.
Answers are plain numbers.

# compound, result_value
rows = [
    ("CCCS(=O)(=O)NC(=O)C1(C)CCN(C(=O)c2sccc2C)C1 (stereo unspecified)", 3570),
    ("N#C/C(=C\\c1cccnc1)C(=O)Nc1ccc(SC(F)F)cc1", 3830),
    ("Cc1nc2ccc(S(=O)(=O)NCC(=O)NCCN3CCCCC3C)cc2s1 (stereo unspecified)", 3450),
    ("O=c1onc(-c2c(F)cccc2F)n1-c1ccccc1Cl", 4210),
]

The following compounds each have a reported value; give each one's fluorescence intensity.
1. O=c1[nH][nH]c2c1[C@H](c1ccc(Cl)cc1)O[C@H](CCc1ccccc1)C2
2. CCOC(=O)N1CCN(C(=S)Nc2ccc(C)cc2C)CC1
3. O=C1c2cccnc2C(Nc2ccc(S(=O)(=O)N3CCCCCC3)cc2)N1Cc1ccccc1 (stereo unspecified)
4. C[N+](C)(C)CCNC(=O)c1c[nH]c2ccccc12
5. O=S(=O)(NC1CCCCC1N1CCCCC1)c1ccc(Cl)cc1 (stereo unspecified)
6. Cc1nc(Nc2ccc(S(=O)(=O)N3CCCC3)cc2)c2nnn(Cc3ccccc3)c2n1
7. CC(=O)Nc1cc(C(=O)O)ccc1S(=O)(=O)c1ccc(Cl)cc1
8. Cc1cccc(NS(=O)(=O)c2cccc(C(=O)NNC(=O)c3ccccc3O)c2)c1

Marked response:
1. 5920
2. 2140
3. 21600
4. 5520
5. 5790
6. 2010
7. 22400
8. 3510
